Target: Solute carrier organic anion transporter family member 1B1 (Homo sapiens)
Sequence (Q9Y6L6 whole entry): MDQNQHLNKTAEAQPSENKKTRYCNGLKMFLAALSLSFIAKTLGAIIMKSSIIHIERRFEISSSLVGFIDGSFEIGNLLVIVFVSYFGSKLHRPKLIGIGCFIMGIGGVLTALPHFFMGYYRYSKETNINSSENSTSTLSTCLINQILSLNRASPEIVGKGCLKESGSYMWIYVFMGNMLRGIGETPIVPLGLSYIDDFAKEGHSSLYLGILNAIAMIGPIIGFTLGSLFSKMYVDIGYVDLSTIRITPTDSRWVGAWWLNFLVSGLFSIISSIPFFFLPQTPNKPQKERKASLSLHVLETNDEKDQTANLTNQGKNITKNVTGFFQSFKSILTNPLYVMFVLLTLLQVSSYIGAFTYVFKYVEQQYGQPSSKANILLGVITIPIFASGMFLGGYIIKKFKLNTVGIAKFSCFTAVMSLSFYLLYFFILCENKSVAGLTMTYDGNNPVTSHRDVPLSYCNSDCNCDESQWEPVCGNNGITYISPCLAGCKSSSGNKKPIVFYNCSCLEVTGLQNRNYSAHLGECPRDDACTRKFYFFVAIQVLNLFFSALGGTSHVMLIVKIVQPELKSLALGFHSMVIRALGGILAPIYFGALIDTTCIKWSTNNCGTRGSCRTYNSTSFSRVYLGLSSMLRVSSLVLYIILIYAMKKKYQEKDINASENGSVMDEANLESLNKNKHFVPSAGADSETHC
Conditions: chinese hamster, cho, 10 µM
Please go through the items and note down their residual activity.
Express the result in % but write the number alone.

# get_value(readout='residual activity', item= CNC(=O)N(C)c1nnc(C(C)(C)C)s1 [TEBUTHIURON] ) 87.52

Field entry: CCCCCc1c2c(cc(O)c1C(=O)O)OC(=O)c1c(cc(OC)cc1C(=O)CCCC)O2 [LOBARIC ACID] 18.31

Field entry: Cc1ccc2cc3c(ccc4ccccc43)c3c2c1CC3 [3-METHYLCHOLANTHRENE] 86.73

Field entry: CC1(C)O[C@H]2CC(=O)OC[C@]23[C@H]2CC[C@@]4(C)[C@H](c5ccoc5)OC(=O)[C@H]5O[C@]54[C@]2(C)C(=O)C[C@@H]13 [LIMONIN] 102.2

Field entry: CC(=O)Oc1ccc(O)cc1 [4-ACETOXYPHENOL] 136.7

---

Please go through the items and note down their residual activity.
target: Solute carrier organic anion transporter family member 1B3 (Homo sapiens, UniProt Q9NPD5); details: chinese hamster, cho, 10 µM
Sequence (Q9NPD5 whole entry): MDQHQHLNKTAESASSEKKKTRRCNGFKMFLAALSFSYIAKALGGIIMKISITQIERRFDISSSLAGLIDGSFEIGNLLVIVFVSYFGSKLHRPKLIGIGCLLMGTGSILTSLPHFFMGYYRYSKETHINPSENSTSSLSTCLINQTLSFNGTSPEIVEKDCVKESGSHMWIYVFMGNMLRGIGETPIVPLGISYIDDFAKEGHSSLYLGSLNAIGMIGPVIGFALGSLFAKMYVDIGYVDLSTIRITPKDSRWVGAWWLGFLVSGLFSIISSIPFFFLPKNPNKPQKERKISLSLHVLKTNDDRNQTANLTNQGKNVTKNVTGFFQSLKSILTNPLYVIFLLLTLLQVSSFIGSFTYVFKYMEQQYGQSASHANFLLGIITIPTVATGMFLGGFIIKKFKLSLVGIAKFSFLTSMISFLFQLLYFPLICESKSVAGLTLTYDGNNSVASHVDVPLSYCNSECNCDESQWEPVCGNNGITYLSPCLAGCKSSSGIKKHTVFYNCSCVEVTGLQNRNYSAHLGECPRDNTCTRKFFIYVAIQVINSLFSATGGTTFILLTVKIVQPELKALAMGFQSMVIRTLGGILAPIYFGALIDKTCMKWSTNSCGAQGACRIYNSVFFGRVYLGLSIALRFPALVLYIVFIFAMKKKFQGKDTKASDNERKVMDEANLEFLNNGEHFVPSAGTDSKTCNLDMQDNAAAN
Express the result in % but write the number alone.

# get_value(readout='residual activity', item= CC(=O)Oc1ccc(C(c2ccc(OC(C)=O)cc2)c2ccccn2)cc1 ) 103.3

Field entry: C[C@@H]1O[C@@H](O[C@H]2CC[C@]3(C=O)[C@H]4CC[C@]5(C)[C@@H](C6=CC(=O)OC6)CC[C@]5(O)[C@@H]4CC[C@]3(O)C2)[C@H](O)[C@H](O)[C@H]1O 95.81

Field entry: CCN(CC)CCOCCOC(=O)C1(c2ccccc2)CCCC1.O=C(O)CC(O)(CC(=O)O)C(=O)O [CARBETAPENTANE CITRATE] 97.23

Field entry: COc1ccc(-c2coc3cc(O)ccc3c2=O)c(O)c1O 86.85

Field entry: C=C(C)CCC[C@@H](C)CCOC(C)=O 112.9

Field entry: CCCCCCCCCCCCCCCCCCOCC(O)CO (centres undefined) 108.3

Field entry: COc1ccc(-c2coc3cc(O)ccc3c2=O)cc1 114.7

Field entry: CCNC(=O)CC[C@H](N)C(=O)O 82.21

Field entry: O=c1oc2ccccc2cc1O [3-HYDROXYCOUMARIN] 116.7
